assay: yeast display, Sf9 membrane polyspecificity reagent, FACS + sequencing; frameworks hold sequencing errors

>  <polymer-sequence>
QVQLVESGGGLVQAGGSLRLSCAASGSTFTHNGMGWYRQAPGKETELVASITWSGGSTYYAVSVKGRFTISRDNAKNTVYLQMNSLKPEDNAVYYCASDAKLYITGFDYWGQGTQVTVSS

>  <polyreactivity (PSR sort gate)>
low polyreactivity

$$$$
>  <polymer-sequence>
QVHLVESGGGLVQAGGSLRLSCAASGRIYKYNAMGWYRQAPGKERELVAAISSGGSTNYADSVKGRFTISRDNAKNTVYLQMNSLKPEDTAVYYCAADGTRVSSFHYLVWLGYWGQGTQVTVSS

>  <polyreactivity (PSR sort gate)>
low polyreactivity

$$$$
>  <polymer-sequence>
QVQLVESGGCLVQAGGSLRLSCAASGRTFVGYVMGWSRQAPGKERELVAAIRTGGRTHYADSVKGRFTISRDNAKNTVYLQMNSLKPEDTAVYYCNARASYSWHGIRGNYDYWGQGTQVTVSS

>  <polyreactivity (PSR sort gate)>
high polyreactivity

$$$$
>  <polymer-sequence>
QVQLVESGGGLVQAGGSLRLSCAASGIIFNFNAMGWYSQAPGKERELVAGISYGGGRTYYADSVKGRFTISRDNAINTVYLQMNSLKPEDTAFYYCNKYGLGIYRGYYWGQGTQVTVSS

>  <polyreactivity (PSR sort gate)>
high polyreactivity

$$$$
>  <polymer-sequence>
QVQLEESGGGLVQAGGSLRLSCAATASIFDYYAMGWYRQAPGKERELVAAISGTGGSTYYADSVMGRFTISRDNAKNTVYLQMNSLKPEDTAVYYCNAARVIRTALRNDGTFDYWGQGTQVTVSS

>  <polyreactivity (PSR sort gate)>
high polyreactivity

$$$$

====

assay: yeast display, Sf9 membrane polyspecificity reagent, FACS + sequencing; frameworks hold sequencing errors
result-type: polyreactivity (PSR sort gate)

>  <polymer-sequence>
QVQLVESGGGLVQAGGSLRLSCAASGFIFPRYAMGWYRQAPGKERELVAAISYTGGSTYYADSVKGRFTISRDNAKNTVSLQMNSLKPEDTAVYYCYAYFLSQYQRGYRDDYWGQGTQVTVSS

>  <result-type>
polyreactivity (PSR sort gate)

>  <data-value>
high polyreactivity

$$$$
>  <polymer-sequence>
QVQLVESGGGLVQAGGSLRLSCAASGSIFTPYTMGWYRQAPGKERELVAAISWGADSTYYADSVKGRFTISRDNAKNTVYLQMISLKPEDTAVYYCGDDYWGWSNGYEYWGQGTQVTVSS

>  <result-type>
polyreactivity (PSR sort gate)

>  <data-value>
low polyreactivity

$$$$
>  <polymer-sequence>
QVQLVESGGGLVQAGGSLRLSCAASGRIVEGNVMGWYRQAPGKERELVAGISSGGSTTYADSVKGRFTISRDNAKNTVYLQMNSLKPEDTAVYYCAASRKRFRHSSYRFYYCGQGTQVTVSS

>  <result-type>
polyreactivity (PSR sort gate)

>  <data-value>
high polyreactivity

$$$$
>  <polymer-sequence>
QVQLVDSGGGLVQAGGSLRLSCAASGISFGVYAMGWYRQAPGKERELVAAISRRGASTYYADSVKGRFTISRDNAKTTVYLQMNILNPEDTAVYYCPAYLARRQYDYWGQGTKVTVSS

>  <result-type>
polyreactivity (PSR sort gate)

>  <data-value>
high polyreactivity

$$$$
>  <polymer-sequence>
QVQLVESGGGLVQAGGSLRVSCAASGSIFRFNVMGWYRQAPGKERELVAAITRGDSTNYADSVKGRFTISRDNAKNTVYLQMNSLKPEDTAVYYCAAGYYYYLRDHDYWGQGTQVTVSS

>  <result-type>
polyreactivity (PSR sort gate)

>  <data-value>
low polyreactivity

$$$$

====

test: yeast display, Sf9 membrane polyspecificity reagent, FACS + sequencing; frameworks hold sequencing errors
result-type: polyreactivity (PSR sort gate)

>  <polymer-sequence>
QVQLVESVGGLVQEGGSLRLISAASGSIFGSNAMGWYRQAPGKEREMFAAISKSGGSTYYADSVKGRFTISRDNAKNTVYLQMNSLKPEDTAVFYCNPRWWVVTFYGRYEGDYWGQGTQVTVSS

>  <data-value>
low polyreactivity

$$$$
>  <polymer-sequence>
QVQLVESWGGLVQAGGSLRLSCAASGFTFYGYAMGWYRQAPGKERELVAAISRRSSSTYYADSVKGRFTISRDNAKNTVYLQMNSLKPEDTAVYYCNTVFQLSGYAAGVDYWGQGTQVTVSS

>  <data-value>
high polyreactivity

$$$$
>  <polymer-sequence>
QVQLVESGGGLVQAGGSLRLTCAASGSTLKSYAMGWYRQAPGKERELVAAITRSGARTYYADSVQGRFTISRDNAKNTVYFQMNSLKPEDTAVYYCNRVGYQYGSDQEDDYWGQGTQVTVSS

>  <data-value>
high polyreactivity

$$$$
>  <polymer-sequence>
QVQLVESGGGLVQAGGSLRLSCAASGYIFRLYTMGWYRQAPGKERELVAAISYSGGSTYYADSVKGRFTISRDNAKNTVYLQMNSLKPEDTAVYYCAAEDWRGYRWIRYGYWGQGTQVTVSS

>  <data-value>
low polyreactivity

$$$$
>  <polymer-sequence>
QVQLVESGGGLVQAGGSLRLSCAASGYTFSHYAMGWYRQAPGKERELVAGITWSGGSTYYADSVKVRFTISRDNAKNTVYVQMNSLKPEDTSVYYCAAKYYWYYSYSGIPLFDYWGQGTQVTVSS

>  <data-value>
low polyreactivity

$$$$
>  <polymer-sequence>
QVQLVESGGGLVQAGGSLRLSCAAYGFTFTRKAMGWYRQAPGKERELVAAISGSGGSTYYADSVKGRYTISRDNAKNTVYLQMNSLKPADTAVYYCAKDGWWRKYDYWGQGTQVTVSS

>  <data-value>
high polyreactivity

$$$$
>  <polymer-sequence>
QVQHVESLGGLVQAGGSLRLSCAASGIIFGYYAMGWYRQAPGKERELVAAISRRGGSTYYADSVKGRFTISRDNAKNTVYLQMNSLKPEDTAVYYCAAVELRLSTPDMESWGQGTQVTVSS

>  <data-value>
high polyreactivity

$$$$
>  <polymer-sequence>
QVQLVESGGGLVHAGGSLRLSCAASGRTFWSYSMGWYRQAPGKEREFVAAISRRGGITYYADSVKGRFTISRDNAKTTVYLQMNSLKPEDTAVFYCAKGALSYYGGQVKYDYWGQGTQVTVSS

>  <data-value>
high polyreactivity

$$$$
>  <polymer-sequence>
QVQLVESGGGLVQAGGSLRLSCAASGRTFSRYAMGWYRQAPGKERELVATINTRAGITNYPDSVKGRFTISRDNAKNTVYLQMNSLKPEDTAVYYCNRGRPGGPSWYHYVYWGQGTQVTVSS

>  <data-value>
high polyreactivity

$$$$
>  <polymer-sequence>
QVQLVESGGGLVQAGVSLRLSCAASGRIFYPYVMGWYRQAPGKERELVAAISDSTGSTYYADSVKGRFTISRDNAKNTVYLQMNSLKPEDTAVYYCAAGWFYATYWRFYYWGQGTQVTVSS

>  <data-value>
low polyreactivity

$$$$
>  <polymer-sequence>
QVQLVESGGGLVQAGGSLRLSCAASGFTFARNAMGWYRQAPGKERELVAVISRGGSTNYADSVKGRFTISRDNAKNTVSLQLHSLKPEDTAVYYCATRSSRRSYYLGEFNYWGQGTQVTVSS

>  <data-value>
high polyreactivity

$$$$

====

experiment: yeast display, Sf9 membrane polyspecificity reagent, FACS + sequencing; frameworks hold sequencing errors

>  <polymer-sequence>
QVQLVESGGGLVQAGCSLRLSCAASGRIFRLNAMGWYRQAPGKERELVAAISSSGGSTYYADSVKGRFTISRDNAKNTVYLQMNSLKPEDTAVSYCAKYPVGGYDYWGQGPQVTVSS

>  <polyreactivity (PSR sort gate)>
low polyreactivity

$$$$
>  <polymer-sequence>
QVQLVESGGGLVQAGGSLRLSCAASGLTFLINAMGWYRQAPGKERELVAAITSSGGSTSYADSVKGRFTISRDNAKYTVYLQMNSLKPEDTAVYYCAADLNAYPQRAYDYWGQGTQVTVSS

>  <polyreactivity (PSR sort gate)>
low polyreactivity

$$$$
>  <polymer-sequence>
QVQLVESGGGLVQAGGSLRLSCAASGSIFGRYAMGWYRQAPGKERELVAAITFSGASTYYADSVKGRFTISRDNAKNTVYLQMNSLKPEDTAVYYCAADGGTIEGDYWGQGTQVTVSS

>  <polyreactivity (PSR sort gate)>
low polyreactivity

$$$$
>  <polymer-sequence>
LVQLVESGGGLVQAGGSLRLSCAASGIIFRFYDMGWYRQAPGKERELVAAISWDGTSTYYADSVKGRFTISRDNAKNTVSLQMNSQKPEDTAVYYCAADWVGSPWWYLWYGYWGQGTQVTVSS

>  <polyreactivity (PSR sort gate)>
high polyreactivity

$$$$
>  <polymer-sequence>
QVHLVESGGGLVQAGGSLRLSCAASGRTFWIYGMGWYRPATGKERELVAAITRSGGSTNYADSVKGRFTLSRDNAKNNVYLQMNSLKPEVTAVYYGAADTWYPGYYAYDYRGQGTQVTVSS

>  <polyreactivity (PSR sort gate)>
high polyreactivity

$$$$
>  <polymer-sequence>
QGQLVESGGALVQAGGSLRLSCAASGGTFFYYVMGWYRQAPGQERELVAAITGAGGSTYYADSVKGRFTSSRDNAKNTVYLQMNSLKPEDTAVYYCAADVSFTQSDGRLAEYGYWGQGTQVTVSS

>  <polyreactivity (PSR sort gate)>
low polyreactivity

$$$$
>  <polymer-sequence>
QVQLVESGGGLVQAGGSLRLSCAASGYIFRLNAMGWYRQAAGKERELLAGISTGGRTNYADSVKGRFTISRDNAKNTVNLQMNSLTPEDTAVYYCAAAWHTASWVGSDSLGGGYWGQGTQVTVSS

>  <polyreactivity (PSR sort gate)>
low polyreactivity

$$$$
>  <polymer-sequence>
QVQLVESGGGLVQAGGSLRLSCAASGSIFLGYAMGWYRQAPGKERELVATITSSGSTSYADSVKGRFTISRDNAKNTVYLQMKSLKPEDTAVYFCNTDLFQYGVNHYEYWGQGTQVTVSS

>  <polyreactivity (PSR sort gate)>
high polyreactivity

$$$$
>  <polymer-sequence>
QVQLVESGGGLVQAGGSLRLSCAASGFTLARNAMVWYRQAPGKERELVAANSWSGGTTYYADSVKGSFTISRDNAKNTVYLQMNSLKPEDTAVYYCNTASWRAQYYYWGQGNQVTVSS

>  <polyreactivity (PSR sort gate)>
high polyreactivity

$$$$
>  <polymer-sequence>
QVQLVESGGGLVQAGGSLRLSCAASGFTFRKYTMGWYRQAPGKERELVAAITNSGTSTYYADSVKGRFTISRDNAKNTVYLQMNSLKPEDTAVYYCARDNEPDYYSYPYDYWGQGTQVTVSS

>  <polyreactivity (PSR sort gate)>
low polyreactivity

$$$$
>  <polymer-sequence>
QVQLVESGGGLVQAGGSLRLSCAASGIIFGHYAMGWYRQAPGKERELVARITYSGTRTYYADSVKGRFTISRDNAKNTVYLQMNSLKPEDTAVYYCAAGYAYPRWVTAGNNWGQGTQVTVSS

>  <polyreactivity (PSR sort gate)>
high polyreactivity

$$$$
